Readings of expected percent binding for the listed binders
# MEASURED TARGET: T1, HCV Core1-169 (hepatitis C virus (HCV-1), UniProt P26664 1-169)
# T1 sequence: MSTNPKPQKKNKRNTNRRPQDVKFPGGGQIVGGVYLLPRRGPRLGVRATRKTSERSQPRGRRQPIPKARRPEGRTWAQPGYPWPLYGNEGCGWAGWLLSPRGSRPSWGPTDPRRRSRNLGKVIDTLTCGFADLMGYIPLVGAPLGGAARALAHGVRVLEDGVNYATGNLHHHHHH
# ASSAY PROTOCOL: SPR sandwich, capture mAb C11-7
REPORTED ENDPOINT: expected percent binding (%)

{"columns": ["BINDER", "EXPERIMENTAL RESULT"],
 "data": [
  ["HCV 208A-442 (antibody, V domains shown) VH: DVQLQESGPGLVNPSQSLSLTCSVTGYSITSGYYWIWIRQFPGNKLEWMGYIKYDGGNNYSPSLKNRISIARDTSKNQFFLKLNSVTIEDTATYYCTRGSDSFDYWGQGTTLTVSS VL: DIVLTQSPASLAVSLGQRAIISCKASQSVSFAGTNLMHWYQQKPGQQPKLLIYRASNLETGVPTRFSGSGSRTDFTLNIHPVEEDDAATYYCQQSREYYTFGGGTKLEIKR", 1.6],
  ["HCV 208A-222 (antibody, V domains shown) VH: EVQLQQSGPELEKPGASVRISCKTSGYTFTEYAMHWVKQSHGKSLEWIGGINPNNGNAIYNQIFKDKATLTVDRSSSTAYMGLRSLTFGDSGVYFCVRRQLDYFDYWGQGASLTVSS VL: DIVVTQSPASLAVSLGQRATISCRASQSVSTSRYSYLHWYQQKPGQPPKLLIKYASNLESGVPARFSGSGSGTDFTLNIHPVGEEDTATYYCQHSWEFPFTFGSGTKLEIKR", 18.8]
]}
